test system: RARg:RXRa (NR concentration 270 nM, RXRa partner concentration 90 nM); test: PBM binding z-score (relative to random genomic background probes); higher = stronger binding; sequences stand for … in GC…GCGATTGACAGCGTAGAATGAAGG
Label rule, in plain words: PBM binding z-score of 1 and up is Condition met, under 1 is Condition not met.

Below, 7 sequences whose answers are already recorded.
GATACAGGGTCAGCTAGAGCCCAGAGTATGGAAA: Condition met
TCTTGTAGATCAATAGAGGTTAACAAAGTGCGCT: Condition met
GTACCAAGGTGAATAGGTGGTTGATGAGTAGGCG: Condition not met
TCGTGTAGATCAATAGAGGTTAAGAAAGTGCGCT: Condition not met
ATCGAAAGGTCGAGGTGAGTGTAGAGAAAGGGAA: Condition met
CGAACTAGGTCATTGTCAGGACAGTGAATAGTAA: Condition met
TGTGCTAGGTCAACGATGGTCAGCTAATCTGCTA: Condition met

Now look at this one.
Inquiry: Quick check: does TCGAGTAGGTTATGGGCATTCAGAATGGCGTCGA have PBM binding z-score greater than or equal to 1?
Reply text: Condition not met

###

system: PXR homodimer (NR concentration 270 nM); test: PBM binding z-score (relative to random genomic background probes); higher = stronger binding; sequences stand for … in GC…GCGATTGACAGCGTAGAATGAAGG
Quick reference for PBM binding z-score among some sequences

Take a look at these entries with their results.
AATGCAGGGTCATCGTAGGCCAGAGTACGCACAG: 0.279
ACTATCAGTTGAGACGAGGGCAACCGATAGGTTG: -0.0291
CATCAAAGTTCAACTAAGGTAACGTAAAGCACGC: 5.95
TAGCCCAGGTCATGCGGGCCAGTATAGTGTCGGC: 0.093
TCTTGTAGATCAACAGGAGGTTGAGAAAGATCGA: -0.557

Inquiry: Recorded PBM binding z-score of CCGAGTAGGTTATGGGGCATTCATGCAACGGTGA , please.
Reply text: -0.204

Inquiry: Also GCGTGTAGATCAAGGTTAAGAAAGACTAAGCTAA ?
Reply text: 0.176

Inquiry: Also AGAATGAGGTTATACGAAGATCAGGGAAGAAAGT ?
Reply text: 0.292

Inquiry: Also AGTACGAGGGCAATGAGTTGATAGCACGGGTGGC ?
Reply text: 5.08

Inquiry: Also CCGAGTAGGTTGTGGGGCATTCAGGCAACGGTGA ?
Reply text: 0.115

Inquiry: Also CGAACTAGATCAAGGACAGTGAATCTCCGCACGC ?
Reply text: -0.0304

Inquiry: Also TCATATAGGTATATGCTAGGTGAAAGTCCGATCT ?
Reply text: 0.215

###

Quick reference for PBM binding z-score among some sequences
test system: RARb:RXRa (NR concentration 270 nM, RXRa partner concentration 90 nM); test: PBM binding z-score (relative to random genomic background probes); higher = stronger binding; sequences stand for … in GC…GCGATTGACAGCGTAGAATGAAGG
// no unit, no text: just the number

Take a look at these entries with their results.
TCTTGTAGATGAAGCAGGTTAAGAAAGCCTGAGT: -0.0996
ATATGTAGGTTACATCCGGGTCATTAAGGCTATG: 2.36
ATCTCGAGGTAAAAGTTCAGTGAATCCCGAGGAT: 2.54
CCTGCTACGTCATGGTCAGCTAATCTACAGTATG: 0.259
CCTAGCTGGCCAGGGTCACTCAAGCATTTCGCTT: 2.35

Inquiry: Recorded PBM binding z-score of CAAACTAGGTCAAGAGGTCTAAGTCCGCTTCCCG , please.
Reply text: 4.1

Inquiry: Also ATCTCTAGGTAATACTCAGTTCAGTGAAGAACGC ?
Reply text: 0.79

Inquiry: Also GCTTGTTGATCAAGGTTAAGAAAGACTAAGCTAA ?
Reply text: 0.66

Inquiry: Also TAGCCTAGGTCAGATCGGGCCATTATACGCTATA ?
Reply text: 2.84

Inquiry: Also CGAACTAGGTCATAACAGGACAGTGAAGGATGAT ?
Reply text: 3.38

Inquiry: Also CCGACTGGCGCAAAGGTTACCATACTCAGTACGA ?
Reply text: 1.75

###

Quick reference for PBM binding z-score among some sequences
test system: PPARg DBDmut IVT, anti-PPARg (DBD mutation: PPARg1 K132A/R137A, NR concentration 270 nM); test: PBM binding z-score (relative to random genomic background probes); higher = stronger binding; sequences stand for … in GC…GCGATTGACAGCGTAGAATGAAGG
// no unit, no text: just the number

Take a look at these entries with their results.
GCATATAGGTAATACAGGGTGAAAGTCCGATTGT: 0.404
ACAGACCGGTGAGTGAAGGTAACTCAGCTGGACG: -1.09
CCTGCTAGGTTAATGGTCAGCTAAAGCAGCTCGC: -0.61

Alright, here's another sequence for you.
Inquiry: Could you share what PBM binding z-score was measured for ATCTCTAGATAACAAGTTCAGTGAAAGAGAGGAC , tested on PPARg DBDmut IVT, anti-PPARg (DBD mutation: PPARg1 K132A/R137A, NR concentration 270 nM)?
Reply text: 0.272

###

tested on: PPARg DBDmut IVT, anti-PPARg (DBD mutation: PPARg1 K132A/R137A, NR concentration 270 nM); assay: PBM binding z-score (relative to random genomic background probes); higher = stronger binding; sequences stand for … in GC…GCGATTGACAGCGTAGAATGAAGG
Quick reference for PBM binding z-score among some sequences
// no unit, no text: just the number

Take a look at these entries with their results.
TCGAGTCGGTTACCAATGGGGCATTCAGCTTTCT: -0.375
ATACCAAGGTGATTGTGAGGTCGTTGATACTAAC: 0.654
TGAATGATGTTAAAGATCAGGGAACGTGGCGTCG: 0.88
CCTATTAGTTGACCATAAGGGCTACCGAAGCTCG: 0.311

Inquiry: Could you share what PBM binding z-score was measured for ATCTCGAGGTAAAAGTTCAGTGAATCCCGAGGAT , tested on PPARg DBDmut IVT, anti-PPARg (DBD mutation: PPARg1 K132A/R137A, NR concentration 270 nM)?
Reply text: 0.58

Inquiry: Also TCATATAGGTAAAGATGAAAGTCGAACGATATGA ?
Reply text: 0.63

Inquiry: Also TAACCTAGGTCATTGGGCCAGTATAGTACGCATC ?
Reply text: 0.368

Inquiry: Also AGTCAAAGTTCACTTGGTAACGTAAGATTCAGCT ?
Reply text: 0.299

Inquiry: Also AGTCAAAGTTCAATAGGTAACGTAAGATTCAGCT ?
Reply text: 1.2

Inquiry: Also ACTTACGGGTCAACGAGGTTAGAGCACGCGTATA ?
Reply text: 0.825

Inquiry: Also GCTGCTAGGTCAGGTTGGTCAGCTATCGGGTACG ?
Reply text: -0.675

Inquiry: Also CGTCCAAGGTCAAGGTTAGTGAAAGAGACTCGAA ?
Reply text: 0.146

###

tested on: RARa:RXR (NR concentration 270 nM, RXRa partner concentration 90 nM); test: PBM binding z-score (relative to random genomic background probes); higher = stronger binding; sequences stand for … in GC…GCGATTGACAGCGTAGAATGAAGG
resultType: PBM binding z-score

GATACAGGGTCAAGGCCAGAGGACGCGTATTGAT: 4.56
CCTTACGGGTCAAGTTTATAGCACGGGTGGTACG: 4.34
TCTCGGAGGACACGCAAGGTCAGAGCTCGACATC: 2.61
TCATATAGGTAAGCAGGTGAAAGTCCGTAAGTTA: 0.662
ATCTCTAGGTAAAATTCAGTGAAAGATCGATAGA: -0.157
CCTAGCAGGCCAGGCTCACTCAAGCATTTCGCTT: -1.09

Inquiry: Recorded PBM binding z-score of TCTAGTTGGTCACGGAGGTCAAACACGACGGGTA , please.
Reply text: 5.16

Inquiry: Also TCGTATAGGTAAACAGGTGAAAGTCCGTAAGTTA ?
Reply text: 1.22

Inquiry: Also TAGTCTAGGTCAGATCGGGCCAGTATACGCTATA ?
Reply text: 1.54

Inquiry: Also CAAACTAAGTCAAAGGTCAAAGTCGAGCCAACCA ?
Reply text: 7.85

Inquiry: Also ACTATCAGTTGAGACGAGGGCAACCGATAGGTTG ?
Reply text: 0.7

Inquiry: Also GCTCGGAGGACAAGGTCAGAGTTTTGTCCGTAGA ?
Reply text: 2.23

###

system: PXR:RXRa (NR concentration 270 nM, RXRa partner concentration 90 nM); experiment: PBM binding z-score (relative to random genomic background probes); higher = stronger binding; sequences stand for … in GC…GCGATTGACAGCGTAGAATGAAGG
resultType: PBM binding z-score
// no unit, no text: just the number

Take a look at these entries with their results.
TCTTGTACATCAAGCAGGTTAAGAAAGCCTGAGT: 0.6
CAGCCGAGGTCAGGGCCAGTATAGGAGGAACGTT: 3.5
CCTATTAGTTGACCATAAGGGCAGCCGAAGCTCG: 0.00471
GCGACTGGGGCATCAGCGGGTTACCATAACTTAA: -0.0944
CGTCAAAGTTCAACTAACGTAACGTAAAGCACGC: 4.55

Inquiry: Could you share what PBM binding z-score was measured for TTACCAAGGAGAAAGGTCGTTGATGCACGCCTTG , tested on PXR:RXRa (NR concentration 270 nM, RXRa partner concentration 90 nM)?
Reply text: 1.82

Inquiry: Also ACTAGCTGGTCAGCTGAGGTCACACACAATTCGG ?
Reply text: 5.58

Inquiry: Also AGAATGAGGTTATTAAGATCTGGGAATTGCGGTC ?
Reply text: 1.16

Inquiry: Also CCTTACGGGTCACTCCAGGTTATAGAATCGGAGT ?
Reply text: 5.29

Inquiry: Also CCGACTGTGGCAAGGTTACCATAACGCACAGCCA ?
Reply text: 0.176

All values here come from the supplement of paper PMC6555819.
